# Test system: RFP-resistant M. tuberculosis
# experiment-description: microbe, parasite or virus in culture
# Assay type: cell-based, Mycobacterium tuberculosis
# condition-description: Mycobacterium tuberculosis, RFP-resistant M. tuberculosis No. 97; Table 8 (series 2)
Label true when MIC is strictly below 2 µg/mL; otherwise label false.

# check: MIC < 2 µg/mL for COc1c(N2CCNC(CF)C2)c(F)cc2c(=O)c(C(=O)O)cn([C@@H]3C[C@@H]3F)c12 (some centres unmarked) true

# check: MIC < 2 µg/mL for COc1c(N2CCNC3(CC3)C2)c(F)cc2c(=O)c(C(=O)O)cn([C@@H]3C[C@@H]3F)c12 false

# check: MIC < 2 µg/mL for COc1c(C2CNC3(CCC3)CN2)c(F)cc2c(=O)c(C(=O)O)cn([C@@H]3C[C@@H]3F)c12 (some centres unmarked) false

# check: MIC < 2 µg/mL for COCC1CN(c2c(F)cc3c(=O)c(C(=O)O)cn([C@@H]4C[C@@H]4F)c3c2OC)CCN1 (some centres unmarked) true
